Target chain: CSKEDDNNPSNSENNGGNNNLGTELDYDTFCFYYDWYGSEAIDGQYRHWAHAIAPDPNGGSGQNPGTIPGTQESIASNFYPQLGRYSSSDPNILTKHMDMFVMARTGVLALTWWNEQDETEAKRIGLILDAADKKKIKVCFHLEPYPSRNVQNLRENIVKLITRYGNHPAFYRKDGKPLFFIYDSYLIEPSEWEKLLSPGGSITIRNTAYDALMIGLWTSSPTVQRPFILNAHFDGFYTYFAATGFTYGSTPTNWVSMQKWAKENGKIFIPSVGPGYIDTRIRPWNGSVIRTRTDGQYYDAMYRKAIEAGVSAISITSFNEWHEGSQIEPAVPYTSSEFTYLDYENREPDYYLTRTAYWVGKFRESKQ
Quantity Name: pKd
Lab note — pKd values are minus log10 of concentrations in M.

>  <Smiles Data>
OC[C@H]1OCC[C@@H](O[C@H]2O[C@H](CO)[C@@H](O)[C@H](O)[C@@H]2O)[C@@H]1O

>  <Quantity Name>
pKd

>  <Result Number>
3.66

$$$$

--- query ---
Recorded result, `OC[C@H]1O[C@H](O[C@@H]2C=CO[C@H](CO)[C@H]2O)[C@@H](O)[C@@H](O)[C@@H]1O` , pKd: 3.95
